System: MOLM-13 cells
Experiment: MOLM13 CTG - analysis of cell proliferation (Cell Titre Glo)
Type: cell-based
Settings: Homo sapiens, geometric mean, read-out: CTG MOLM13 cells IC50 GEOMEAN
Lab note: cut-off is 9 µM. Strictly less in IC50 is condition met. Exactly 9 µM or more is condition not met.

Consider the worked cases shown below.
O=C(NCc1cn2cc(CNCC3CCC(F)(F)C3)ccc2n1)c1cc(=O)n2ccccc2n1 (centres unmarked) [Compound 211]	condition not met
O=C(NCc1cn2cc(CNC3CCC3)ccc2n1)c1cc(=O)n2ccccc2n1 [Compound 126]	condition not met
COc1cc(-c2cn(Cc3cn4cc(CNCC5CCC5)ccc4n3)nn2)c2cn[nH]c2c1 [Example 270]	condition met

Problem: For the molecule O=C(O)c1cc(-c2cn(Cc3cn4cc(CNCC5CCC5)ccc4n3)nn2)c2cn[nH]c2c1 [Example 297] , is IC50 under 9 µM?
condition not met

Problem: For the molecule CC(C)(C)CNCc1ccc2nc(Cn3cc(-c4ccc5[nH]ncc5c4)nn3)cn2c1 [Example 254] , is IC50 under 9 µM?
condition not met

Problem: For the molecule O=C(NCc1cn2cc(CNC3CC34CCC4)ccc2n1)c1cc(=O)n2ccccc2n1 (centres unmarked) [Compound 280] , is IC50 under 9 µM?
condition met

Sourced from patent US12358915B2
